- System: pAKT in N87 cells
- assay_comment: pAKT IC50 in N87 cancer cell line
- Assay type: cell-based
- condition_description: Homo sapiens; N87, gastric; HER2 amplification
experimental_readout: IC50 (nM)
Write down the numeric answer in nM and omit the unit.

For `C=CC(=O)N1CCc2nc(-c3nc(-c4ccc5c(c4)CCNC5)c4ccsc4c3-c3ccc(F)cc3OCCOC)sc2C1` , write its IC50.
25

###

- assay_comment: Pharmacokinetic profile in male CD-1 mice
- Format: in vivo
- condition_description: mouse, plasma, single oral dose 100 mg/kg
experimental_readout: Cmax (ng/mL)
Write down the numeric answer in ng/mL and omit the unit.

For C=CC(=O)N1CCc2nc(-c3nc(-c4ccc5c(c4)CCNC5)c4ccsc4c3-c3ccc(F)cc3OCCOC)sc2C1 [Compound 58] , write its Cmax.
3460
